Tested on: HCC-38
Assay: relative cell number vs DMSO control (72 h) (% of DMSO); higher = less growth inhibition (more cells)
Settings: sgRNA knockout: sgNT, 10000 nM
Reported relative cell number by item:
attribute measured: relative cell number

1) C[C@]1(c2nc3c(C(N)=O)cccc3[nH]2)CCCN1
89.6
2) OCCn1cc(-c2ccc3c(c2)CC/C3=N\O)c(-c2ccncc2)n1
107
3) O=C1CCC(N2C(=O)c3ccccc3C2=O)C(=O)N1 (stereo not drawn) [Thalidomide]
115
4) COc1cc(/C=C/C(=O)CC(=O)/C=C/c2ccc(O)c(OC)c2)ccc1O
85.5
5) O=C(CCc1ccc(O)cc1)c1c(O)cc(O)cc1O
113
6) CN1CCc2c(c3ccccc3n2Cc2ccc(C(=O)NO)cc2)C1
66
7) O=P1(N(CCCl)CCCl)NCCCO1 (stereo not drawn) [Cyclophosphamide]
94.7
8) O=C(/C=C/c1ccc(O)cc1)c1ccc(O)cc1O
86.5

----------
System: HCC-38
Assay: relative cell number vs DMSO control (72 h) (% of DMSO); higher = less growth inhibition (more cells)
Details: sgRNA knockout: sgNT, 10000 nM
# relative cell number >= 80 gives T, anything below gives F

1. FC(F)c1nc2ccccc2n1-c1nc(N2CCOCC2)nc(N2CCOCC2)n1
F
2. CN(C)C/C=C/C(=O)Nc1cc2c(Nc3ccc(F)c(Cl)c3)ncnc2cc1O[C@H]1CCOC1
F
3. Cc1cc2c(C(C)C)c(O)c(O)c(C=O)c2c(O)c1-c1c(C)cc2c(C(C)C)c(O)c(O)c(C=O)c2c1O
F
4. Cc1ccc(C(=O)Cn2c3c(sc2=N)CCCC3)cc1
T
5. CC(C)(C)c1ccc(S(=O)(=O)NCc2ccc(C(=O)Nc3cccnc3)cc2)cc1
F
6. N#Cc1ccc(COC[C@H]2O[C@@H](n3c(NCc4ccc(Cl)c(Cl)c4)nc4c(N)ncnc43)[C@H](O)[C@@H]2O)cc1
T
7. C=C1C(=O)O[C@H]2[C@H]1CC/C(C)=C/CC[C@@]1(C)O[C@@H]21 [Parthenolide]
T
8. Cc1nc(Nc2ncc(C(=O)Nc3c(C)cccc3Cl)s2)cc(N2CCN(CCO)CC2)n1
F
9. C=CC(=O)Nc1cc2c(Nc3ccc(F)c(Cl)c3)ncnc2cc1OCCCN1CCOCC1
F
10. Cc1onc(-c2ccccc2)c1-c1ccc(S(N)(=O)=O)cc1
T
11. CC(C)(C(=O)NCC(F)(F)C(F)(F)F)C(=O)N[C@@H]1C(=O)Nc2ccccc2-c2ccccc21
T
12. NC(=O)Nc1sc(-c2ccc(F)cc2)cc1C(N)=O
F
13. O=c1[nH]cc(F)c(=O)[nH]1
F
14. Cc1ncc([N+](=O)[O-])n1CC(O)CCl (centres undefined)
T
15. CN(C)C(=O)c1ccc(S(=O)(=O)c2ccc(NC(=O)[C@@](C)(O)C(F)(F)F)c(Cl)c2)cc1
T
16. CN(C)CC[C@H](CSc1ccccc1)Nc1ccc(S(=O)(=O)NC(=O)c2ccc(N3CCN(Cc4ccccc4-c4ccc(Cl)cc4)CC3)cc2)cc1[N+](=O)[O-]
F
17. CNC(=O)c1cc(Oc2ccc(NC(=O)Nc3ccc(Cl)c(C(F)(F)F)c3)cc2)ccn1
F
18. C#Cc1cccc(Nc2ncnc3cc(OCCOC)c(OCCOC)cc23)c1
T
19. c1ccc2c(Oc3nc(Nc4ccc(N5CCOCC5)cc4)c4ncn(C5CCCCC5)c4n3)cccc2c1
F
20. COc1cc2nccc(Oc3ccc(NC(=O)Nc4cc(C)on4)c(Cl)c3)c2cc1OC
F
21. CN(C)/N=N/c1[nH]cnc1C(N)=O
T
22. Cn1c(CCCC(=O)O)nc2cc(N(CCCl)CCCl)ccc21
T
23. C[C@@]1(C(=O)Nc2ccc(F)nc2)CCCN1c1nc(Nc2cc(C3CC3)n[nH]2)c2cccn2n1
F
